# subject.of.test: SSTR4 (Homo sapiens)
# Construct: host or cells: CHO-K1
# Sequence (P31391 whole entry): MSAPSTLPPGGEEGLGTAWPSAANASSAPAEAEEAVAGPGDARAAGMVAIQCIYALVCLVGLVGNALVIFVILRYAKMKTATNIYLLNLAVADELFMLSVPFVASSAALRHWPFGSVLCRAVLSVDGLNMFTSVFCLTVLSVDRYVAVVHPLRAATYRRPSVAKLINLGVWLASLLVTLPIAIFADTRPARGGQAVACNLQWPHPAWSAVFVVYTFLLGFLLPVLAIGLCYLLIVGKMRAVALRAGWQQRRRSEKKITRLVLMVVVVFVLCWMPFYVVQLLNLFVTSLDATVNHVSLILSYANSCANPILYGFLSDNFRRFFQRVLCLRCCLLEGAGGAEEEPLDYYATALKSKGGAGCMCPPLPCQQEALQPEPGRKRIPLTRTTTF
# experiment.notes: SSTR4 I-125 somatostatin competition binding assay (CHO-K1 membranes)
# recorded.conditions: competition with I-125 somatostatin, membranes from CHO-K1 overexpressing SSTR4; read-out: SSTR4 Binding pIC50 (converted)
Entries and their IC50
metric.name: IC50 (nM)

> print(dat)
                                   compound  metric.name  numeric.readout
1  O=C(CCN1CCC1)NC(c1cccc(Cl)c1)C(F)(F)F (single isomer, unassigned) [Example 192]         IC50              126
2  C[C@H](CN1CCCC1)C(=O)NC(C)(C)c1ccccc1Cl (single isomer, unassigned) [Example 136]         IC50              126
3  Cc1c(Cl)cccc1C(C)(C)NC(=O)C[C@@H]1CCCN1C [Example 118]         IC50              398
4  O=C(CCN1CCC1)NC(c1cccc(Cl)c1)C(F)(F)F (single isomer, unassigned) [Example 191]         IC50               10
5  CN1CCCCC1CC(=O)NC(C)(C)c1ccc(Cl)cc1 (centres unmarked) [Example 30]         IC50              126
6  CN1CCCC[C@@H]1CC(=O)NC(C)(C)c1nccc2occc12 (single isomer, unassigned) [Example 14]         IC50             79.4
7  CC[C@H](CN1CCC1)C(=O)NC(C)(C)c1ccc(F)cc1 (single isomer, unassigned) [Example 182]         IC50             12.6
8  CN1CCCC1CC(=O)NC(C)(C)COc1ncccc1C(F)(F)F (centres unmarked) [Example 28]         IC50              251

---

# subject.of.test: SSTR1 (Homo sapiens, UniProt P30872)
# Construct: purchased Perkin Elmer ES-520-M400UA; host or cells: CHO-K1 membranes
# Sequence (P30872 whole entry): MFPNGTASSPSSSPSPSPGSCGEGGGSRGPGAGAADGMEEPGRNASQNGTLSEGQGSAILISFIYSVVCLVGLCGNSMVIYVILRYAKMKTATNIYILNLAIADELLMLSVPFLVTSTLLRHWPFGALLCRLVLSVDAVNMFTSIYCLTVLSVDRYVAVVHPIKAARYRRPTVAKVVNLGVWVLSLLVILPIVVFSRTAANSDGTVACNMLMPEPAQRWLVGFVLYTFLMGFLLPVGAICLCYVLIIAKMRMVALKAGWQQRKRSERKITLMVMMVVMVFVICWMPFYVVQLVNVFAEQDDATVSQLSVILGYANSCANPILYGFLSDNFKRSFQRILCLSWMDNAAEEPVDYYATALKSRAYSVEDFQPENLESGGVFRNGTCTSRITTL
# experiment.notes: SSTR1 I-125 somatostatin competition binding assay for selectivity versus SSTR1 (CHO-K1 membranes)
# recorded.conditions: competition with I-125 somatostatin, membranes from CHO-K1 overexpressing SSTR1; read-out: SSTR1 Binding pIC50 (converted)
metric.name: IC50 (µM)

> print(dat)
                                    compound  metric.name  modifier  numeric.readout
 1  CCN1CCCC1CC(=O)NC(C)(C)COc1ncccc1C (centres unmarked)         IC50         =             25.1
 2  CN1CCC[C@@H]1CC(=O)NC(C)(C)c1cccc(Cl)c1Cl         IC50         =             15.8
 3  Cc1ccccc1C(C)(C)NC(=O)[C@H](C)CN1CCC1 (single isomer, unassigned)         IC50         =             12.6
 4  C[C@H](CN1CCC1)C(=O)NC(C)(C)c1ccccc1F (single isomer, unassigned)         IC50         =               20
 5  Cc1cccnc1OCC1(NC(=O)C(C)C2CCCN2C)CC1 (centres unmarked)         IC50         =             25.1
 6  CN1CCCCC1CC(=O)NC(C)(C)c1cc(Cl)ccc1Cl (centres unmarked)         IC50         =             7.94
 7  O=C(CCN1CCC1)NC(c1ccccc1F)C(F)(F)F (single isomer, unassigned)         IC50         =               20
 8  O=C(CCN1CCC1)N[C@H](c1ccccc1)C(F)F (single isomer, unassigned)         IC50         =             25.1
 9  Cc1ccc([C@H](CF)NC(=O)CCN2CCC2)cc1 (single isomer, unassigned)         IC50         =             31.6
10  COc1ccccc1[C@@H](NC(=O)[C@H](CN1CCC1)C(C)C)C(F)F         IC50         =            0.126
11  O=C(CCN1CCC1)NC(c1cccc(F)c1)C(F)(F)F (single isomer, unassigned) [Example 193]         IC50         =             31.6
12  O=C(CCN1CCCC1)N[C@H](c1cccc(Cl)c1)C(F)F (single isomer, unassigned)         IC50         =             7.94
13  O=C(CCN1CCC1)NC(c1cccc(Cl)c1)C(F)(F)F (single isomer, unassigned) [Example 191]         IC50         =             2.51
14  CC(C)(COc1ncccc1C(F)F)NC(=O)CC12CCCN1CCC2         IC50         >             50.1
15  Cc1cccc(C(C)(C)NC(=O)C[C@@H]2CCCN2C)c1Cl         IC50         =             39.8
16  O=C(CCN1CCC1)NC(c1cc(F)ccc1F)C(F)F (centres unmarked)         IC50         >             50.1
17  Cc1c(F)cccc1C(C)(C)NC(=O)[C@H](C)CN1CCC1 (single isomer, unassigned)         IC50         =                2
